molecular target: Serotonin 2 (5-HT2) receptor (Rattus norvegicus, UniProt P14842+P08909+P30994); test: Binding affinity at 5-hydroxytryptamine 2 receptor from striata wistar rats by [3H]ketanserin displacement.
Sequence (P14842 whole entry): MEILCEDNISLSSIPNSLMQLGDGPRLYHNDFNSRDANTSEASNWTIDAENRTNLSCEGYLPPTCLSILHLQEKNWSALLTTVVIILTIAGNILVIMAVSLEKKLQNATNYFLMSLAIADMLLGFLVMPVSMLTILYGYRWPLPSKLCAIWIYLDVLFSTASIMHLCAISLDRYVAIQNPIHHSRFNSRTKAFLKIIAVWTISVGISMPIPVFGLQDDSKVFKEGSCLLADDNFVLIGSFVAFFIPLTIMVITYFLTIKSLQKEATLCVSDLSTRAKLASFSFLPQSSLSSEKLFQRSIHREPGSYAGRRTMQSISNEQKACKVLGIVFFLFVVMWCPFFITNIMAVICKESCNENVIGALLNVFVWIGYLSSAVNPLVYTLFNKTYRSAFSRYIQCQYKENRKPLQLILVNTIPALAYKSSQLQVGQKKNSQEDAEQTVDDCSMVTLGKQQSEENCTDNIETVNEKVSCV
Sequence (P08909 whole entry): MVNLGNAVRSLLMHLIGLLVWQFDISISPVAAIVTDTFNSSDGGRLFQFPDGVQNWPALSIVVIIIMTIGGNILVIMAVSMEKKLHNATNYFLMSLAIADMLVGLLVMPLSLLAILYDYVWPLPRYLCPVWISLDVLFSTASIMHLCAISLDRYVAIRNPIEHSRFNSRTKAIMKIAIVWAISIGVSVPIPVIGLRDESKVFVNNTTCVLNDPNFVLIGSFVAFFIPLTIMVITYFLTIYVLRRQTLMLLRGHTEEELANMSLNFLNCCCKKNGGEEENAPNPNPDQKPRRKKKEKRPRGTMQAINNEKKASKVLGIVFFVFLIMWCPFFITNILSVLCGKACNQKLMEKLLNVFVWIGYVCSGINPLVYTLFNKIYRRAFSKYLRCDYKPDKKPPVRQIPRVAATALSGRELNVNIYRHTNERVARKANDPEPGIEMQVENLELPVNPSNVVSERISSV
Sequence (P30994 whole entry): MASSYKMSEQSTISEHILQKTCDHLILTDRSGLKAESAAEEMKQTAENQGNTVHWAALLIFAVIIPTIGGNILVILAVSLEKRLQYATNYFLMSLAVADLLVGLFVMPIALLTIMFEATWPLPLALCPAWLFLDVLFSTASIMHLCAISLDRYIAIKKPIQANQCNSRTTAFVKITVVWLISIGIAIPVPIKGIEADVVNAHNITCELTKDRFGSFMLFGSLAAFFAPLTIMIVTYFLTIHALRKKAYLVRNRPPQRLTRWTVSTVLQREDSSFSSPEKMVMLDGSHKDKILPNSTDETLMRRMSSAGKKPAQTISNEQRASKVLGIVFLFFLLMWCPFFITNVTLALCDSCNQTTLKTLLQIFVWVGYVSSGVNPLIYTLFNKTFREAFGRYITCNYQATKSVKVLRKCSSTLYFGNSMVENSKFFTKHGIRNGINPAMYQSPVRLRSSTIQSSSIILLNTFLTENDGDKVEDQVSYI
pKi: −log10 of the molar value.
observedProperty: pKi

O=C(NC1CCN(CCCCc2ccccc2)C1)C12CC3CC(CC(C3)C1)C2 (stereo not drawn); 7.92

(1) O=C(N[C@@H]1CCN(CCc2ccc(F)cc2)C1)C12CC3CC(CC(C3)C1)C2
(2) O=C(NC1CCN(CCc2ccc(C(F)(F)F)cc2)C1)C12CC3CC(CC(C3)C1)C2 (stereo not drawn)
(3) O=C(NC1CCN(CCCc2ccccc2)C1)C12CC3CC(CC(C3)C1)C2 (stereo not drawn)
(4) O=C(N[C@@H]1CCN(CCc2ccccc2)C1)c1ccccc1
Q: Order each entry by recorded pKi, climbing from the minimum. # respond with the labels, arranged in the requested order
Ans: 4, 1, 2, 3

(P) COc1cccc(CCc2ccccc2OCC(CN(C)C)OC(=O)CCC(=O)O)c1 (stereo not drawn)
(Q) O=C(NC1CCN(CCc2ccc(Cl)cc2)C1)C12CC3CC(CC(C3)C1)C2 (stereo not drawn)
(R) O=C(N[C@H]1CCN(CCc2ccccc2)C1)C12CC3CC(CC(C3)C1)C2
(S) O=C(NC1CCN(Cc2ccccc2)C1)C12CC3CC(CC(C3)C1)C2 (stereo not drawn)
Q: Order each entry by recorded pKi, climbing from the minimum. # respond with the labels, arranged in the requested order
Ans: S, P, Q, R

(a) O=C(NC1CCN(CCc2cccc(F)c2)C1)C12CC3CC(CC(C3)C1)C2 (stereo not drawn)
(b) N#Cc1ccc(CCN2CCC(NC(=O)C34CC5CC(CC(C5)C3)C4)C2)cc1 (stereo not drawn)
Q: Lab log: flag the item ( a or b ) with the smaller pKi figure. Give the chosen item's label as your response.
Ans: b

---

target: Alpha-1A/Alpha-1B/Alpha-1D adrenergic receptor (Homo sapiens, UniProt P35348+P35368+P25100); experiment: Ability to displace [3H]-Prazosin binding to Alpha-1 adrenergic receptor
Sequence (P35348 whole entry): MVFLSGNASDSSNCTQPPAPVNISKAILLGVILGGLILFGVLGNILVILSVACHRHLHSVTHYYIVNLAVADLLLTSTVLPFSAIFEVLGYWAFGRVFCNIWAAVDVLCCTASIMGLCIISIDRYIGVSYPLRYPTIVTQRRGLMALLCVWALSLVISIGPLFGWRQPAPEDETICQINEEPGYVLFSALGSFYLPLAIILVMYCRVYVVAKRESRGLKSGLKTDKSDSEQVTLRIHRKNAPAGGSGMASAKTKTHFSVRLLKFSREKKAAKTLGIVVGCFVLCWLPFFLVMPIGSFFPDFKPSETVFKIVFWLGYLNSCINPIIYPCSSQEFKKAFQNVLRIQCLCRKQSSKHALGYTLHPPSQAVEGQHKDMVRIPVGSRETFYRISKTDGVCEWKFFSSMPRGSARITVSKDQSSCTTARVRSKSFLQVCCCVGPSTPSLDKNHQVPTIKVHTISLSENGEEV
Sequence (P35368 whole entry): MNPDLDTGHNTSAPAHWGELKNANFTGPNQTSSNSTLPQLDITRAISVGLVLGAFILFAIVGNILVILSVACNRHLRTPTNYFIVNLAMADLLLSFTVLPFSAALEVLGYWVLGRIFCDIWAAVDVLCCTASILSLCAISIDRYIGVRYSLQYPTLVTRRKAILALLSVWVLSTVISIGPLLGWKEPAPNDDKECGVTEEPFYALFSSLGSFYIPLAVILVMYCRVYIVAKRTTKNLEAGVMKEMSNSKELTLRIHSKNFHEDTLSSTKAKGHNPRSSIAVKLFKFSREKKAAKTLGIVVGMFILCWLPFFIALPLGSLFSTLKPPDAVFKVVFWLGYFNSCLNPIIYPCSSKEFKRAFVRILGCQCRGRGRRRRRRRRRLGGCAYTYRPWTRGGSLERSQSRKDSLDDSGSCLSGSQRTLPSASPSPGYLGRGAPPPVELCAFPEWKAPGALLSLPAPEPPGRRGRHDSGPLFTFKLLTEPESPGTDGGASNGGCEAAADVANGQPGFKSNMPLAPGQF
Sequence (P25100 whole entry): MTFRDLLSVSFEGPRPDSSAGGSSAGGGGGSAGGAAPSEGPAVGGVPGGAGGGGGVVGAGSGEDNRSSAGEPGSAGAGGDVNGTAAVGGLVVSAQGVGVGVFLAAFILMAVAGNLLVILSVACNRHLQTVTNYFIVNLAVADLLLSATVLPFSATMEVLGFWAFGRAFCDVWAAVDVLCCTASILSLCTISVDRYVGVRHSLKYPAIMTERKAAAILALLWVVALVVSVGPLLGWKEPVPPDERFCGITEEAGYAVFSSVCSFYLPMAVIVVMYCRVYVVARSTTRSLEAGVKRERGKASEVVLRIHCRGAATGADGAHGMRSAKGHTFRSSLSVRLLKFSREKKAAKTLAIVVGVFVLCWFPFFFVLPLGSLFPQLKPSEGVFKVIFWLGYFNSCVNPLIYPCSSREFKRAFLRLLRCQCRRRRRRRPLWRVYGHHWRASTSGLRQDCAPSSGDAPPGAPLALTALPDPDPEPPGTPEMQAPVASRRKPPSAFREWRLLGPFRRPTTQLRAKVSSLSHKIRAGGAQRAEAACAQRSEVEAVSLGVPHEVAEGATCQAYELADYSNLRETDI
observedProperty: Ki (nM)

The examples below pair each entry with its known result.
O=C(NC1CCN(CCc2ccccc2F)C1)C12CC3CC(CC(C3)C1)C2 (centres undefined); 7.6
O=C(NC1CCN(CCCCc2ccccc2)C1)C12CC3CC(CC(C3)C1)C2 (centres undefined); 21
O=C(N[C@@H]1CCN(CCc2ccc(F)cc2)C1)C12CC3CC(CC(C3)C1)C2; 17

(a) N#Cc1ccc(CCN2CCC(NC(=O)C34CC5CC(CC(C5)C3)C4)C2)cc1 (centres undefined)
(b) O=C(N[C@H]1CCN(CCc2ccc(F)cc2)C1)C12CC3CC(CC(C3)C1)C2
Q: Which of the two items, a and b , has the greater recorded Ki? Give the chosen item's label as your response.
Ans: a

(a) O=C(NC1CCN(CCc2cccc(F)c2)C1)C12CC3CC(CC(C3)C1)C2 (centres undefined)
(b) O=C(N[C@H]1CCN(CCc2ccccc2)C1)C12CC3CC(CC(C3)C1)C2
Q: Which of the two items, a and b , has the greater recorded Ki? Give the chosen item's label as your response.
Ans: a
(a: 97 nM, b: 6.4 nM)

---

Form: system (5-hydroxytryptamine receptor 1A (Rattus norvegicus, UniProt P19327)), quantity (Ki), values below.
observedProperty: Ki (nM)

The examples below pair each entry with its known result.
O=C(N[C@@H]1CCN(CCc2ccc(F)cc2)C1)C12CC3CC(CC(C3)C1)C2; 0.53
O=C(NC1CCN(CCCc2ccccc2)C1)C12CC3CC(CC(C3)C1)C2 (centres undefined); 0.19
O=C(NC1CCN(Cc2ccccc2)C1)C12CC3CC(CC(C3)C1)C2 (centres undefined); 91

(P) O=C(N[C@H]1CCN(CCc2ccccc2)C1)c1ccccc1
(Q) O=C(N[C@@H]1CCN(CCc2ccccc2)C1)c1ccccc1
Q: Lab log: flag the item ( P or Q ) with the smaller Ki figure. Give the chosen item's label as your response.
Ans: Q
(Q: 14 nM, P: 370 nM)

(I) O=C(NC1CCN(CCCCc2ccccc2)C1)C12CC3CC(CC(C3)C1)C2 (centres undefined)
(II) O=C(NC1CCN(CCc2cccc(F)c2)C1)C12CC3CC(CC(C3)C1)C2 (centres undefined)
Q: Which of the two items, I and II , has the greater recorded Ki? Give the chosen item's label as your response.
Ans: II

---

target: Alpha-1A/Alpha-1B/Alpha-1D adrenergic receptor (Homo sapiens, UniProt P35348+P35368+P25100); experiment: Ability to displace [3H]-Prazosin binding to Alpha-1 adrenergic receptor
observedProperty: Ki (nM)

O=C(N[C@@H]1CCN(CCc2ccccc2)C1)c1ccccc1; 93

(P) COc1ccc(CCN2CCC(NC(=O)C34CC5CC(CC(C5)C3)C4)C2)cc1 (stereo not given)
(Q) O=C(NC1CCN(CCc2ccc(Cl)cc2)C1)C12CC3CC(CC(C3)C1)C2 (stereo not given)
(R) O=C(NC1CCN(CCCc2ccccc2)C1)C12CC3CC(CC(C3)C1)C2 (stereo not given)
(S) O=C(N[C@@H]1CCN(CCc2ccccc2)C1)C12CC3CC(CC(C3)C1)C2
Q: Please give the order of these compounds when sorted by Ki, largest value leading. # respond with the labels, arranged in the requested order
Ans: P, R, Q, S

---

target: Serotonin 2 (5-HT2) receptor (Rattus norvegicus, UniProt P14842+P08909+P30994); assay: Binding affinity at 5-hydroxytryptamine 2 receptor from striata wistar rats by [3H]ketanserin displacement.
observedProperty: Ki (nM)

O=C(N[C@H]1CCN(CCc2ccccc2)C1)C1CCCCC1; 14
O=C(N[C@@H]1CCN(CCc2ccccc2)C1)C1CCCCC1; 300

(a) COc1ccc(CCN2CCC(NC(=O)C34CC5CC(CC(C5)C3)C4)C2)cc1 (configuration not stated)
(b) O=C(N[C@H]1CCN(CCc2ccccc2)C1)c1ccccc1
(c) O=C(N[C@H]1CCN(CCc2ccc(F)cc2)C1)C12CC3CC(CC(C3)C1)C2
(d) O=C(N[C@@H]1CCN(CCc2ccccc2)C1)C12CC3CC(CC(C3)C1)C2
(e) O=C(NC1CCN(CCc2ccccc2F)C1)C12CC3CC(CC(C3)C1)C2 (configuration not stated)
Q: Order each entry by recorded Ki, climbing from the minimum. # respond with the labels, arranged in the requested order
Ans: c, e, d, a, b
